Tested on: C. spp * (5) (C. parapsilosis, lusitaniae, kefyr)
assay-summary: In vitro antimycotic activity, strain panel (Table 2)
Assay type: cell-based
condition-notes: Lodderomyces parapsilosis; C. parapsilosis, lusitaniae, kefyr, 5 strains; read-out: MIC90
attribute-measured: MIC90 (µg/mL)
Kindly provide the numeric value in µg/mL only, without the unit symbol.

molecule: OC(Cn1cncn1)(Cn1cncn1)c1ccc(F)cc1F [Fluconazole, reference compound]
MIC90 [µg/mL]: 2
//
molecule: C[C@H]([C@](O)(Cn1cncn1)c1ccc(F)cc1F)S(C)(=O)=O [Genaconazole, reference compound]
MIC90 [µg/mL]: 1

Would you kindly look at the next entry?
Report MIC90 for CCC(C)n1ncn(-c2ccc(N3CCN(c4ccc(OCC5COC(Cn6cncn6)(c6ccc(Cl)cc6Cl)O5)cc4)CC3)cc2)c1=O (centres unmarked) [Itraconazole, reference compound] please.
0.06

###

System: Candida albicans 1040
assay-summary: In vivo antimycotic activity in mice experimentally infected by C. albicans, oral route
Design: species or system Charles River white mice (CD1 strain)
condition-notes: oral route; 8 days from the infection; probits analysis
attribute-measured: PD50 at 8th day (mg/kg/os)
Give the number; mg/kg/os is assumed, so skip it.

Check out these entries, answers already filled in.
molecule: CC(COC(F)(F)C(F)F)C(O)(Cn1cncn1)c1ccc(Cl)cc1 (racemic) [Compound 4]
unit: mg/kg/os
PD50 at 8th day: 0.31
--
molecule: CC(COC(F)(F)C(F)F)C(O)(Cn1cncn1)c1ccc(Cl)cc1Cl (racemic) [Compound 1]
unit: mg/kg/os
PD50 at 8th day: 0.120
--
molecule: OC(Cn1cncn1)(Cn1cncn1)c1ccc(F)cc1F [Fluconazole, reference compound]
unit: mg/kg/os
PD50 at 8th day: 0.125
--
molecule: CCC(COC(F)(F)C(F)F)C(O)(Cn1cncn1)c1ccc(F)cc1F (racemic) [Compound 7, nitrate]
unit: mg/kg/os
PD50 at 8th day: 1.5

Fill blank: measured PD50 at 8th day of the molecule CC(COC(F)(F)C(F)F)C(O)(Cn1cncn1)c1ccc(F)cc1F (racemic) [Compound 6] is ____.
0.42

Field entry: CC(C)(COC(F)(F)F)C(O)(Cn1cncn1)c1ccc(F)cc1F (racemic) [Compound 12]
1.09

Now try CCC(C)n1ncn(-c2ccc(N3CCN(c4ccc(OCC5COC(Cn6cncn6)(c6ccc(Cl)cc6Cl)O5)cc4)CC3)cc2)c1=O (stereo not shown) [Itraconazole, reference compound] .
2.31

Subsequent entry: CC(C)(COC(F)(F)C(F)F)C(O)(Cn1cncn1)c1ccc(F)cc1F (racemic) [Compound 5]
0.50

For CC(C)(COC(F)(F)C(F)F)C(O)(Cn1cncn1)c1ccc(Cl)cc1 (racemic) [Compound 3] then?
0.49

Now the same for CC(C)(COC(F)(F)C(F)C(F)(F)F)C(O)(Cn1cncn1)c1ccc(F)cc1F (racemic) [Compound 9]
0.89
